- method-summary: J774-Dual cytotoxicity
- Assay type: cell-based, mouse
- condition-details: mouse, J774-Dual cells, Mouse Reporter Cell Line J774; read-out: J774 cytotox CC50
reported-property: CC50

Example compounds with recorded CC50:
[
  {
    "compound": "COc1ccc2oc(-c3ccc(C)c([N+](=O)[O-])c3)nc2c1 [ND-84]",
    "reported-property": "CC50",
    "reported-measurement": "> 25 µM"
  },
  {
    "compound": "Cc1cc2nc(-c3c[nH]c4ccccc34)oc2cc1C [ND-108]",
    "reported-property": "CC50",
    "reported-measurement": "> 10 µM"
  },
  {
    "compound": "COc1c(Cl)cc(C(=O)Nc2cc(-c3nc4cc(C)c(C)cc4o3)ccc2C)cc1Cl [ND-69]",
    "reported-property": "CC50",
    "reported-measurement": "> 25 µM"
  },
  {
    "compound": "Cc1ccc(-c2nc3cc(C(C)C)ccc3o2)cc1NC(=O)c1ccc(F)c([N+](=O)[O-])c1 [ND-54]",
    "reported-property": "CC50",
    "reported-measurement": "> 25 µM"
  }
]

Alright, here's another compound for you.
Fill blank: measured CC50 of the compound CCOc1ccc(C(=O)Nc2cc(-c3nc4ncccc4o3)ccc2C)cc1[N+](=O)[O-] [ND-48] is ____.
> 25 µM

---

Quick reference: CC50 of the listed items.
- method-summary: J774-Dual cytotoxicity
- Type: cell-based, mouse
- condition-details: mouse, J774-Dual cells, Mouse Reporter Cell Line; read-out: J774 cytotox CC50

Answered cases to consult:
[
  {
    "structure-string": "O=C(Nc1ccc(N2CCN(C(=O)c3cccs3)CC2)cc1)c1ccc2c(c1)OCO2",
    "reported-measurement": "> 25 µM"
  },
  {
    "structure-string": "Cc1cc(NC(=O)c2ccc(OCc3ccccc3)cc2)ccc1N1CCN(C(=O)c2cccs2)CC1",
    "reported-measurement": "> 10 µM"
  },
  {
    "structure-string": "O=C(NCCC(=O)N1CCN(C(=O)c2cccs2)CC1)c1ccc(OCc2ccccc2)cc1",
    "reported-measurement": "> 25 µM"
  },
  {
    "structure-string": "COc1c(C)cc(Br)cc1C(=O)Nc1ccc(N2CCN(C(=O)c3cccs3)CC2)cc1",
    "reported-measurement": "> 25 µM"
  },
  {
    "structure-string": "O=C(Nc1ccc(N2CCN(C(=O)c3cccs3)CC2)cc1)c1sc2cc(Cl)ccc2c1Cl",
    "reported-measurement": "43.6 µM"
  }
]

Entry `COc1cccc(Cn2cc(CN3CCN(C(=O)c4cccs4)CC3)nn2)c1` has what CC50?
> 25 µM

What value of CC50 has been reported for the following compound? `O=C(Nc1ccc(N2CCN(C(=O)c3ccsc3)CC2)cc1)c1ccc(OCc2ccccc2)nc1`
13.7 µM

Would you kindly share the measured CC50 for `CCCCOc1nc(N)c2c(n1)N(Cc1cccc(CN3CCCC3)c1)CC(=O)N2` ?
73.9 µM

Fill in: CC50 of `Cc1cc(NC(=O)c2sc3cc(Cl)ccc3c2Cl)ccc1NC(=O)c1ccco1` is ___
> 25 µM

---

- Tested on: IRF-Lucia luciferase reporter (ISRE) in J774-Dual cells
- method-summary: J774-Dual IRF-Lucia luciferase reporter assay (ISRE activation)
- Type: cell-based, mouse
- condition-details: Mus musculus, J774, Mouse Reporter Cell Line, 8-point dose response; read-out: J774 IRF EC50
Let's look at some compounds and their measured EC50.

Solved cases below.
[
  {
    "compound": "O=C(Nc1ccc(N2CCN(C(=O)c3ccsc3)CC2)cc1)c1ccc(OCc2ccccc2)nc1 [NA-1]",
    "reported-property": "EC50",
    "reported-measurement": "~3.06 µM"
  },
  {
    "compound": "O=C(Nc1ccc(N2CCN(C(=O)c3cccs3)CC2)cc1)c1ccc(-c2ccncc2)cc1 [NA-38]",
    "reported-property": "EC50",
    "reported-measurement": "~10.2 µM"
  },
  {
    "compound": "O=C(Nc1ccc(N2CCN(C(=O)c3cccs3)CC2)cc1)c1ccc(-c2cc3ccccc3oc2=O)cc1 [NA-32]",
    "reported-property": "EC50",
    "reported-measurement": "11.9 µM"
  }
]

I'd like to know its EC50. The compound in question is O=C(Nc1ccc(N2CCN(C(=O)c3cccs3)CC2)cc1)c1ccc(-c2ccccc2)nc1 [NA-41]
10.6 µM

For the compound shown here, Cc1cc(NC(=O)c2sc3cc(Cl)ccc3c2Cl)ccc1NC(=O)c1ccco1 [NC-2] , give the reported EC50.
14.6 µM
